- targetOfAssay: Metabotropic glutamate receptor 5 (Rattus norvegicus)
- Sequence (P31424 whole entry): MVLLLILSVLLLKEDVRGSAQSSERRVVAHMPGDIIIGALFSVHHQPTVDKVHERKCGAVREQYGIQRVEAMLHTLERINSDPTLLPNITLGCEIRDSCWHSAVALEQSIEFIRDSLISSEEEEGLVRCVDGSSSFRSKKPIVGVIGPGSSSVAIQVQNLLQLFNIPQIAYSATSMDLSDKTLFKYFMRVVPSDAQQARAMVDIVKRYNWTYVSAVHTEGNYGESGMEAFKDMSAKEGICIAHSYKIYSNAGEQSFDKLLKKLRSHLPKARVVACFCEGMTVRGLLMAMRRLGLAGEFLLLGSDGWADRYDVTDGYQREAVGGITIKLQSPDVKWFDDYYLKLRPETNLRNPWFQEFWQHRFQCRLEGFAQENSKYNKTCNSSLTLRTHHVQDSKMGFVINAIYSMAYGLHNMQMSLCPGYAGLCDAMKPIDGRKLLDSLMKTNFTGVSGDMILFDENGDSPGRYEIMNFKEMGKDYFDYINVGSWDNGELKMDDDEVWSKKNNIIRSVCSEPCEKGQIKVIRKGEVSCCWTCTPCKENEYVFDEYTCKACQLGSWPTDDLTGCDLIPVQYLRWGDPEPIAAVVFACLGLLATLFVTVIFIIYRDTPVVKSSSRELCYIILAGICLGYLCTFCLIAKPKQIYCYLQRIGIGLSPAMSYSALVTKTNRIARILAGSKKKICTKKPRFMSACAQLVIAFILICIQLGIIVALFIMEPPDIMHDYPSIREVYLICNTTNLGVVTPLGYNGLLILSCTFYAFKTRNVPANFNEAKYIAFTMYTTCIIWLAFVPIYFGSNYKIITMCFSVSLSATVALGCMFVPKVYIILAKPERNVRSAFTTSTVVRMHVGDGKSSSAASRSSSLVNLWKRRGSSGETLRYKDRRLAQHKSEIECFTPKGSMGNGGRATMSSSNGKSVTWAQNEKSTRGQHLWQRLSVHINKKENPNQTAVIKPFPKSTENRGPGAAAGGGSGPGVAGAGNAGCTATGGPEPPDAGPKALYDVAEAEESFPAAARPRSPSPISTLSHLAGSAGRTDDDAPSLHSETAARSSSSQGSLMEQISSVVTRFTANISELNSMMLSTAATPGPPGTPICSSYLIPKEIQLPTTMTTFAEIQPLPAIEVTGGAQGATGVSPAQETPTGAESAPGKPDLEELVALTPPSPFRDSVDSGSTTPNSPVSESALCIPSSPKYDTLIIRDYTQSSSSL
- protocolSummary: Antagonist activity at rat mGlu5 receptor expressed in CHO cells assessed as inhibition of quisqualate-stimulated calcium mobilization
IC50 for assorted compounds

Example cases with answers are listed next.
1) COc1cccc(-c2cc3nc(C)ccc3cn2)c1 | 7.9 µM
2) COc1cc(C#N)cc(-c2cc3ncccc3cn2)c1 | 0.068 µM

Look up IC50: "Cc1cc(C)cc(-c2cnc3cccnc3c2)c1"
> 30 µM

Look up IC50: "Cc1cccc(-c2cnc3cccnc3c2)c1"
15.7 µM

Look up IC50: "Cc1cccc(-c2ccc3cccnc3n2)c1"
0.225 µM

* * *

- targetOfAssay: Metabotropic glutamate receptor 5 (Rattus norvegicus)
- protocolSummary: Antagonist activity at rat mGlu5 receptor expressed in CHO cells assessed as inhibition of quisqualate-stimulated calcium mobilization
pIC50 for assorted compounds
In textbook form, pIC50 equals minus log to base ten of the concentration in mol/L.

Example cases with answers are listed next.
1) N#Cc1cccc(-c2cnc3cccnc3c2)c1 | 4.73
2) COc1cc(C#N)cc(-c2cnc3cccnc3c2)c1 | 7.26
3) c1ccc(-c2ccc3cccnc3n2)cc1 | 5.74
4) Cc1ccc(-c2cnc3cccnc3c2)cc1C | 4.92
5) Cc1ccc2ccc(-c3ccccc3)nc2n1 | 6.18

Let's switch to this compound now.
Look up pIC50: "Cc1ccc2ccc(-c3cccc(Br)c3)nc2n1"
7.32
